System: Galium (catchweed bedstraw, Galium aparine)
Experiment: Test A postemergence
Assay type: in vivo
Conditions: 125 g ai/ha, postemergence; visual rating after approx. 10 d, 0 to 100 scale (0 no effect, 100 complete control)
QUANTITY: Plant response rating, Galium
Please give only the number in your answer, with no unit.

| COMPOUND | Plant response rating, Galium |
| --- | --- |
| CN1CC(c2ccc(Br)cc2)C(C(=O)Nc2ccc(F)cc2F)C1=O (stereo not drawn) | 60 |
| O=C1NCC(c2ccc(F)cc2F)C1C(=O)Nc1ccccc1F (stereo not drawn) | 0 |
| CN1CC(c2cc(F)cc(F)c2)C(C(=O)Nc2cccc3c2CCCC3)C1=O (stereo not drawn) | 0 |
| CN1CC(c2cccc(OC(F)(F)C(F)F)c2)C(C(=O)Nc2ccccc2F)C1=O (stereo not drawn) | 70 |

response.value for Cc1cccc(C2CN(C)C(=O)C2C(=O)Nc2ccccc2S(C)(=O)=O)c1 (stereo not drawn) (field: Plant response rating, Galium) = 20

Per the records, this compound ( CN1CC(c2cccc(F)c2)C(C(=O)Nc2cccc(F)c2F)C1=O (stereo not drawn) ) has Plant response rating, Galium equal to 50

* * *

System: corn (Zea mays)
Assay: Test G Post-Emergence Protocol
Assay type: in vivo
Conditions: Zea mays, post-emergence, 312 h, 250 g ai/ha, evaluated after 13 days, 100=total damage to plant, 0=no damage to plant, read-out: Corn damage rating
Excerpt: Seeds of corn (Zea mays), giant foxtail (Setaria faberi), barnyardgrass (Echinochloa crus-galli), ivy-leaved morning glory (Ipomoea hederacea), redroot pigweed (Amaranthus retroflexus) and velvetleaf (Abutilon theophrasti) were sown in standard soil in pots. […]
// values below are reported plant injury at 250 g/ha
Your answer is read as %, so omit the unit and give the number.

Consider the worked cases shown below.
| COMPOUND | EXPERIMENTAL_SYSTEM | plant injury at 250 g/ha, % |
| --- | --- | --- |
| CN1CC(c2ccc(Cl)c([N+](=O)[O-])c2)C(C(=O)Nc2cccc(F)c2F)C1=O (stereo not shown) | corn (Zea mays) | 70 |
| CN1C[C@H](c2cccc(C(F)(F)F)c2)[C@@H](C(=O)Nc2cc(O)ccc2F)C1=O (racemic) | corn (Zea mays) | 0 |
| CCOc1ccc(C2CN(C)C(=O)C2C(=O)Nc2cccc(F)c2F)cc1OCC (stereo not shown) | corn (Zea mays) | 60 |
| CN1CC(c2ccc(F)c(OCC(F)(F)F)c2)C(C(=O)Nc2cccc(F)c2F)C1=O (stereo not shown) | corn (Zea mays) | 80 |
| CN1C[C@H](c2ccc(F)c(C#N)c2)[C@@H](C(=O)Nc2ccccc2S(C)(=O)=O)C1=O (racemic) | corn (Zea mays) | 0 |

Entry COCCOc1cc([C@@H]2CN(C)C(=O)[C@H]2C(=O)Nc2cccc(F)c2C)ccc1C (racemic) , plant injury at 250 g/ha reported as 80

The reported value for CCOc1cc(C2CN(C)C(=O)C2C(=O)Nc2cccc(F)c2F)cc(C(F)(F)F)c1 (stereo not shown) in terms of plant injury at 250 g/ha is 70

Value of plant injury at 250 g/ha reported for the compound Cc1ccc([C@H]2CN(C)C(=O)[C@@H]2C(=O)Nc2ccc3cccnc3n2)cc1 (racemic) is 0

Just so you know, measured plant injury at 250 g/ha for COc1c(F)cc(C2CN(C)C(=O)C2C(=O)Nc2cccc(F)c2F)cc1F (stereo not shown) came out at 80

# compound C=Cc1cccc([C@@H]2CN(C)C(=O)[C@H]2C(=O)Nc2cccc(F)c2F)c1 (racemic) ; its plant injury at 250 g/ha = 80
